Experiment: Stability of crystalline forms on storage at 40° C. for 20 days, purity by HPLC
Assay type: physicochemical
Details: before storage; HPLC
Below, each entry is listed alongside its reported Purity before storage.

COMPOUND: COc1ccc2cccc(CCNC(C)=O)c2c1 [crystalline form IV]
RESULT_UNITS: %
Purity before storage: 99.82

COMPOUND: COc1ccc2cccc(CCNC(C)=O)c2c1 [crystalline form VI]
RESULT_UNITS: %
Purity before storage: 99.60

COMPOUND: COc1ccc2cccc(CCNC(C)=O)c2c1 [crystalline form II]
RESULT_UNITS: %
Purity before storage: 99.79

COMPOUND: COc1ccc2cccc(CCNC(C)=O)c2c1 [crystalline form III]
RESULT_UNITS: %
Purity before storage: 99.77

====

Assay: Solubility measurement in water by HPLC, external standard method
Type: physicochemical
Conditions: HPLC
READOUT: solubility (µg/mL)

COMPOUND: COc1ccc2cccc(CCNC(C)=O)c2c1 [crystalline form VI]
RESULT_VALUE: 1240

====

As shown below, each of these molecules has a reported Purity after storage in the thermostatically controlled containers for 20 days value.
Assay: Stability of crystalline forms on storage at 40° C. for 20 days, purity by HPLC
Assay type: physicochemical
Details: 40° C., 20 days; HPLC
READOUT: Purity after storage in the thermostatically controlled containers for 20 days (%)

MOLECULE: COc1ccc2cccc(CCNC(C)=O)c2c1 [crystalline form IV]
RESULT_VALUE: 99.54
--
MOLECULE: COc1ccc2cccc(CCNC(C)=O)c2c1 [crystalline form II]
RESULT_VALUE: 99.24
--
MOLECULE: COc1ccc2cccc(CCNC(C)=O)c2c1 [crystalline form VI]
RESULT_VALUE: 99.55
--
MOLECULE: COc1ccc2cccc(CCNC(C)=O)c2c1 [crystalline form III]
RESULT_VALUE: 99.10
